Experiment: Ex vivo biodistribution in mice bearing LNCaP tumor xenografts
Set-up: species or system mouse (male NOD-scid IL2Rg^null (NSG))
Details: mouse, salivary glands, iv, 1 h post-injection, mean ± SD; read-out: Salivary Glands uptake
metric.name: tissue uptake at 1 h (%ID/g)
One number for each entry, in %ID/g.

compound: O=C(O)CCC[C@H](NC(=O)N[C@@H](CCCCNC(=O)[C@H](Cc1c2ccccc2cc2ccccc12)NC(=O)[C@H]1CC[C@H](CNC(=O)[C@H](CCCCNC(=O)c2ccc(F)nc2)NC(=O)CN(CC(=O)O)CC(=O)O)CC1)C(=O)O)C(=O)O [^18F-KL01040]
unit.label: %ID/g
tissue uptake at 1 h: 0.79
//
compound: O=C(O)CCC[C@H](NC(=O)N[C@@H](CCCCNC(=O)[C@H](Cc1c2ccccc2cc2ccccc12)NC(=O)[C@H]1CC[C@H](CNC(=O)CNC(=O)[C@H](CCCCNC(=O)c2ccc(F)nc2)NC(=O)CN(CC(=O)O)CC(=O)O)CC1)C(=O)O)C(=O)O [^18F-KL01130]
unit.label: %ID/g
tissue uptake at 1 h: 0.52

Identify measured tissue uptake at 1 h associated with O=C(O)CC[C@H](NC(=O)N[C@@H](CCCCNC(=O)[C@H](Cc1c2ccccc2cc2ccccc12)NC(=O)[C@H]1CC[C@H](CNC(=O)[C@H](CCNC(=O)c2ccc(F)nc2)NC(=O)CCC(=O)N(CC(=O)O)CC(=O)O)CC1)C(=O)O)C(=O)O [^18F-KL01120]
9.18

====

Experiment: Ex vivo biodistribution in mice bearing LNCaP tumor xenografts
Design: species or system mouse (male NOD-scid IL2Rg^null (NSG))
Details: mouse, brain, iv, 1 h post-injection, mean ± SD; read-out: Brain uptake
Would you mind telling me the reported tissue uptake at 1 h of each entry?

Below are worked cases with known answers.
molecule: O=C(O)CCC[C@H](NC(=O)N[C@@H](CCCCNC(=O)[C@H](Cc1c2ccccc2cc2ccccc12)NC(=O)[C@H]1CC[C@H](CNC(=O)[C@H](CCCCNC(=O)c2ccc(F)nc2)NC(=O)CN(CC(=O)O)CC(=O)O)CC1)C(=O)O)C(=O)O [^18F-KL01040]
reported: 0.11 %ID/g
--
molecule: O=C(O)CC[C@H](NC(=O)N[C@@H](CCCCNC(=O)[C@H](Cc1c2ccccc2cc2ccccc12)NC(=O)[C@H]1CC[C@H](CNC(=O)[C@H](CCNC(=O)c2ccc(F)nc2)NC(=O)CCC(=O)N(CC(=O)O)CC(=O)O)CC1)C(=O)O)C(=O)O [^18F-KL01120]
reported: 0.05 %ID/g

Please look at this molecule and report its tissue uptake at 1 h: O=C(O)CCC[C@H](NC(=O)N[C@@H](CCCCNC(=O)[C@H](Cc1c2ccccc2cc2ccccc12)NC(=O)[C@H]1CC[C@H](CNC(=O)CNC(=O)[C@H](CCCCNC(=O)c2ccc(F)nc2)NC(=O)CN(CC(=O)O)CC(=O)O)CC1)C(=O)O)C(=O)O [^18F-KL01130]
0.04 %ID/g

====

Test: Ex vivo biodistribution in mice bearing LNCaP tumor xenografts
Set-up: species or system mouse (male NOD-scid IL2Rg^null (NSG))
Settings: mouse, bone, iv, 1 h post-injection, mean ± SD; read-out: Bone uptake
What tissue uptake at 1 h was measured for each of the following?
Answers are plain numbers, in %ID/g.

compound: O=C(O)CCC[C@H](NC(=O)N[C@@H](CCCCNC(=O)[C@H](Cc1c2ccccc2cc2ccccc12)NC(=O)[C@H]1CC[C@H](CNC(=O)[C@H](CCCCNC(=O)c2ccc(F)nc2)NC(=O)CN(CC(=O)O)CC(=O)O)CC1)C(=O)O)C(=O)O [^18F-KL01040]
tissue uptake at 1 h / %ID/g: 0.6
//
compound: O=C(O)CC[C@H](NC(=O)N[C@@H](CCCCNC(=O)[C@H](Cc1c2ccccc2cc2ccccc12)NC(=O)[C@H]1CC[C@H](CNC(=O)[C@H](CCNC(=O)c2ccc(F)nc2)NC(=O)CCC(=O)N(CC(=O)O)CC(=O)O)CC1)C(=O)O)C(=O)O [^18F-KL01120]
tissue uptake at 1 h / %ID/g: 0.92

Please report the measured tissue uptake at 1 h for O=C(O)CCC[C@H](NC(=O)N[C@@H](CCCCNC(=O)[C@H](Cc1c2ccccc2cc2ccccc12)NC(=O)[C@H]1CC[C@H](CNC(=O)CNC(=O)[C@H](CCCCNC(=O)c2ccc(F)nc2)NC(=O)CN(CC(=O)O)CC(=O)O)CC1)C(=O)O)C(=O)O [^18F-KL01130]
0.52

====

Assay: Ex vivo biodistribution in mice bearing LNCaP tumor xenografts
Set-up: species or system mouse (male NOD-scid IL2Rg^null (NSG))
Settings: mouse, lungs, iv, 1 h post-injection, mean ± SD; read-out: Lungs uptake
metric.name: tissue uptake at 1 h (%ID/g)
Answers are plain numbers, in %ID/g.

Worked examples, 2 compounds total:
compound: O=C(O)CCC[C@H](NC(=O)N[C@@H](CCCCNC(=O)[C@H](Cc1c2ccccc2cc2ccccc12)NC(=O)[C@H]1CC[C@H](CNC(=O)[C@H](CCCCNC(=O)c2ccc(F)nc2)NC(=O)CN(CC(=O)O)CC(=O)O)CC1)C(=O)O)C(=O)O [^18F-KL01040]
unit.label: %ID/g
tissue uptake at 1 h: 1.56
--
compound: O=C(O)CCC[C@H](NC(=O)N[C@@H](CCCCNC(=O)[C@H](Cc1c2ccccc2cc2ccccc12)NC(=O)[C@H]1CC[C@H](CNC(=O)CNC(=O)[C@H](CCCCNC(=O)c2ccc(F)nc2)NC(=O)CN(CC(=O)O)CC(=O)O)CC1)C(=O)O)C(=O)O [^18F-KL01130]
unit.label: %ID/g
tissue uptake at 1 h: 0.96

Fill in reported tissue uptake at 1 h for this entry: O=C(O)CC[C@H](NC(=O)N[C@@H](CCCCNC(=O)[C@H](Cc1c2ccccc2cc2ccccc12)NC(=O)[C@H]1CC[C@H](CNC(=O)[C@H](CCNC(=O)c2ccc(F)nc2)NC(=O)CCC(=O)N(CC(=O)O)CC(=O)O)CC1)C(=O)O)C(=O)O [^18F-KL01120]
4.1

====

Please provide measured tissue uptake at 1 h for the entries that follow.
Assay: Ex vivo biodistribution in mice bearing LNCaP tumor xenografts
Design: species or system mouse (male NOD-scid IL2Rg^null (NSG))
Conditions: mouse, testes, iv, 1 h Blocked (co-injection of 2-PMPA, 0.5 mg), mean ± SD; read-out: Testes uptake

compound: O=C(O)CC[C@H](NC(=O)N[C@@H](CCCCNC(=O)[C@H](Cc1c2ccccc2cc2ccccc12)NC(=O)[C@H]1CC[C@H](CNC(=O)[C@H](CCNC(=O)c2ccc(F)nc2)NC(=O)CCC(=O)N(CC(=O)O)CC(=O)O)CC1)C(=O)O)C(=O)O [^18F-KL01120]
tissue uptake at 1 h: 0.28 %ID/g

State, in one line, measured tissue uptake at 1 h of O=C(O)CCC[C@H](NC(=O)N[C@@H](CCCCNC(=O)[C@H](Cc1c2ccccc2cc2ccccc12)NC(=O)[C@H]1CC[C@H](CNC(=O)CNC(=O)[C@H](CCCCNC(=O)c2ccc(F)nc2)NC(=O)CN(CC(=O)O)CC(=O)O)CC1)C(=O)O)C(=O)O [^18F-KL01130]
0.41 %ID/g

====

Can you tell me tissue uptake at 1 h for the items I'm about to list?
Assay: Ex vivo biodistribution in mice bearing LNCaP tumor xenografts
Set-up: species or system mouse (male NOD-scid IL2Rg^null (NSG))
Settings: mouse, large intestine, iv, 1 h post-injection, mean ± SD; read-out: Large Intestine uptake
Source text: All imaging and biodistribution studies used male NOD-scid IL2Rg^null (NSG) mice and conducted according to the guidelines established by the Canadian Council on Animal Care and approved by Animal Ethics Committee of the University of British Columbia. For tumor inoculations, mice were anesthetized via inhalation of 2% isoflurane in oxygen and implanted subcutaneously with 5×10^6 LNCaP cells below the left shoulder. […]
One number for each entry, in %ID/g.

molecule: O=C(O)CC[C@H](NC(=O)N[C@@H](CCCCNC(=O)[C@H](Cc1c2ccccc2cc2ccccc12)NC(=O)[C@H]1CC[C@H](CNC(=O)[C@H](CCNC(=O)c2ccc(F)nc2)NC(=O)CCC(=O)N(CC(=O)O)CC(=O)O)CC1)C(=O)O)C(=O)O [^18F-KL01120]
tissue uptake at 1 h (%ID/g): 1.11

Below: the item to evaluate.
Identify measured tissue uptake at 1 h corresponding to O=C(O)CCC[C@H](NC(=O)N[C@@H](CCCCNC(=O)[C@H](Cc1c2ccccc2cc2ccccc12)NC(=O)[C@H]1CC[C@H](CNC(=O)CNC(=O)[C@H](CCCCNC(=O)c2ccc(F)nc2)NC(=O)CN(CC(=O)O)CC(=O)O)CC1)C(=O)O)C(=O)O [^18F-KL01130]
0.2
